Recorded values, source patent US20250382376A1.

# tested-target: T1, CD73 on the surface of human cells (human, UniProt P21589 27-549)
# T1 construct: whole, on cells; The cell line of each value is named under assay or readout; also called CD73 on the surface of tumor cells; CD73 enzyme on the surface of MDA-MB-231 cells
# T1 sequence (looked up): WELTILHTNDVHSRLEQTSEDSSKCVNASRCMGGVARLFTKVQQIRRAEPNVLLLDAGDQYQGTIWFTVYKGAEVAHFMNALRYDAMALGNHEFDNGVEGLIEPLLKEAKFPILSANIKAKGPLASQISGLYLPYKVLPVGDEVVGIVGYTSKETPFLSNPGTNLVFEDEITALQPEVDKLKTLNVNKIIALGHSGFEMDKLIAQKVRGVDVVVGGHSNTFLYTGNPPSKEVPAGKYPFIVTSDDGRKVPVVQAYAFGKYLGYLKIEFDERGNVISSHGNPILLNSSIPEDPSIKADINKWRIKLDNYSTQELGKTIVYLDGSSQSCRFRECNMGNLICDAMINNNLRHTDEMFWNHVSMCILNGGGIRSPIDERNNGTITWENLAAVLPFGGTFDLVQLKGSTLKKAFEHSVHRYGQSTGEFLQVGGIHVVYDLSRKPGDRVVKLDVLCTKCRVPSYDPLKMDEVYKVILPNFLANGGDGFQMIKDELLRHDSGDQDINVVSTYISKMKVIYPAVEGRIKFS
# assay-summary: flow cytometry on NCI-H1299 cells
measured-metric: EC50 (mg/L)

{"binder": "humanized antibody 3D7-HM7-FC1 (Fc fusion) heavy: QRQLVESGGGLVQPGGSLRLSCAASGFLLDYYVIGWFRQAPGKEREGVSCISGSDRSTYYADSVKGRFTISRDNSKNTVYLQMGSLRAEDTAVYYCAADPSPVTVQAMCLPRFPVPYWGQGTLVTVSSEPKSSDKTHTCPPCPAPEFEGGPSVFLFPPKPKDTLMISRTPEVTCVVVDVSHEDPEVKFNWYVDGVEVHNAKTKPREEQYNSTYRVVSVLTVLHQDWLNGKEYKCKVSNKALPASIEKTISKAKGQPREPQVYTLPPSRDELTKNQVSLTCLVKGFYPSDIAVEWESNGQPENNYKTTPPVLDSDGSFFLYSKLTVDKSRWQQGNVFSCSVMHEALHNHYTQKSLSLSPGK", "measured-metric": "EC50", "data-value": 0.02}
{"binder": "chimeric nanobody 4-D04 (Fc fusion, Human-alpaca chimeric antibody) VHH: QLQLVESGGGLVQPGGSLRLSCAASGFTLDYYNIGWFRQAPGKEREGVSCISSSEGSTYYADSVKGRFTISRDNAKNTVYLQMNSLKPEDTAVYYCAADRYYYCSLHVSQYDYWGQGTLVTVSS", "measured-metric": "EC50", "data-value": 0.08}
{"binder": "chimeric nanobody 4-B02 (Fc fusion, Human-alpaca chimeric antibody) VHH: EVQLVESGGGLVQPGGSLRLSCAASGFPLDYYSIGWFRQAPGKEREGVSCIGSSDGSTYYADSVKGRFTISRDNAENTVWLQMNSLKPEDTAVYYCAALKYYYCSGHEAIYDYWGQGTQVTVSG", "measured-metric": "EC50", "data-value": 0.078}
{"binder": "humanized antibody 3D7-HM8-FC1 (Fc fusion) heavy: QRQLVESGGGLVQPGGSLRLSCAASGFLLDYYVIGWFRQAPGKEREGVSCISGSDRSTYYADSVKGRFTISRDNSKNTVYLQMSSLRAEDTAVYYCAADPSPVTVQAMCLPRFPVPYWGQGTLVTVSSEPKSSDKTHTCPPCPAPEFEGGPSVFLFPPKPKDTLMISRTPEVTCVVVDVSHEDPEVKFNWYVDGVEVHNAKTKPREEQYNSTYRVVSVLTVLHQDWLNGKEYKCKVSNKALPASIEKTISKAKGQPREPQVYTLPPSRDELTKNQVSLTCLVKGFYPSDIAVEWESNGQPENNYKTTPPVLDSDGSFFLYSKLTVDKSRWQQGNVFSCSVMHEALHNHYTQKSLSLSPGK", "measured-metric": "EC50", "data-value": 0.043}
{"binder": "humanized antibody 3D7-HM9-FC1 (Fc fusion) heavy: QRQLVESGGGLVQPGGSLRLSCAASGFLLDYYVIGWFRQAPGKEREGVSCISGSDRSTYYADSVKGRFTISRDNAKNTVYLQMSSLRAEDTAVYYCAADPSPVTVQAMCLPRFPVPYWGKGTLVTVSSEPKSSDKTHTCPPCPAPEFEGGPSVFLFPPKPKDTLMISRTPEVTCVVVDVSHEDPEVKFNWYVDGVEVHNAKTKPREEQYNSTYRVVSVLTVLHQDWLNGKEYKCKVSNKALPASIEKTISKAKGQPREPQVYTLPPSRDELTKNQVSLTCLVKGFYPSDIAVEWESNGQPENNYKTTPPVLDSDGSFFLYSKLTVDKSRWQQGNVFSCSVMHEALHNHYTQKSLSLSPGK", "measured-metric": "EC50", "data-value": 0.02}
{"binder": "chimeric nanobody 5-E11 (Fc fusion, Human-alpaca chimeric antibody (VHH on hIgG1 Fc); Only the VHH is tied to the tested molecule; also called original antibody 5-E11) VHH: ALQLVESGGGLVQPGGSLRLSCEVSGFTLDYYNIGWFRQAPGKEREGVSCSSNSGGSTYYADSVKGRFTISRDNAKNTVYLQMNSLKPEDTGVYYCAAYRGWHPSLDARVYDYWGQGTEVTVSS", "measured-metric": "EC50", "data-value": 0.068}
